Tested on: 138582-337-R-J1-PDC complex spheroid viability;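 also: spheroids exposed to agents for 7 days; 100% = DMSO vehicle control viability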
EXPERIMENT: Anticancer human tumor 138582-337-R-J1-PDC patient-derived Merkel cell tumor cell line growth inhibition
COND: second compound 0.1 µM; first compound 0.1 µM; active compounds read low
EXPERIMENTAL ENDPOINT: viability, T/C (%)

CC1(C)CCC(CN2CCN(c3ccc(C(=O)NS(=O)(=O)c4ccc(NCC5CCOCC5)c([N+](=O)[O-])c4)c(Oc4cnc5[nH]ccc5c4)c3)CC2)=C(c2ccc(Cl)cc2)C1 + NC1CCC(NC2CC2c2ccccc2)CC1: 95
CC(C)CC(NC(=O)CNC(=O)c1cc(Cl)ccc1Cl)B1OC(=O)CC(CC(=O)O)(C(=O)O)O1 (configuration not stated) + NC1CCC(NC2CC2c2ccccc2)CC1: 0.46
CC[C@@]1(O)C(=O)OCc2c1cc1n(c2=O)Cc2cc3c(CN(C)C)c(O)ccc3nc2-1 + NC1CC1c1ccc(-c2cccc(O)c2)cc1: 76.8
Nc1ncn(C2CC(O)C(CO)O2)c(=O)n1 (configuration not stated) + NC1CCC(NC2CC2c2ccccc2)CC1: 108
Cn1ncnc1C1c2n[nH]c(=O)c3cc(F)cc(c23)NC1c1ccc(F)cc1 (configuration not stated) + NC1CC1c1ccc(-c2cccc(O)c2)cc1: 67.3
CC(C)CC(NC(=O)C(Cc1ccccc1)NC(=O)c1cnccn1)B(O)O (configuration not stated) + NC1CCC(NC2CC2c2ccccc2)CC1: 0.28
CC[C@@]1(O)C(=O)OCc2c1cc1n(c2=O)Cc2cc3c(CN(C)C)c(O)ccc3nc2-1 + NC1CCC(NC2CC2c2ccccc2)CC1: 114

Where do these numbers come from? They come from PubChem BioAssay AID1918931.
